# Target Of Assay: T1, c-Met-Fc chimera protein (UniProt P08581 25-932, limits assumed)
# T1 construct: Captured on the SPR chip by an anti-IgG antibody; not shown: Fc part
# T1 sequence (P08581 25-932 limits assumed, change not shown): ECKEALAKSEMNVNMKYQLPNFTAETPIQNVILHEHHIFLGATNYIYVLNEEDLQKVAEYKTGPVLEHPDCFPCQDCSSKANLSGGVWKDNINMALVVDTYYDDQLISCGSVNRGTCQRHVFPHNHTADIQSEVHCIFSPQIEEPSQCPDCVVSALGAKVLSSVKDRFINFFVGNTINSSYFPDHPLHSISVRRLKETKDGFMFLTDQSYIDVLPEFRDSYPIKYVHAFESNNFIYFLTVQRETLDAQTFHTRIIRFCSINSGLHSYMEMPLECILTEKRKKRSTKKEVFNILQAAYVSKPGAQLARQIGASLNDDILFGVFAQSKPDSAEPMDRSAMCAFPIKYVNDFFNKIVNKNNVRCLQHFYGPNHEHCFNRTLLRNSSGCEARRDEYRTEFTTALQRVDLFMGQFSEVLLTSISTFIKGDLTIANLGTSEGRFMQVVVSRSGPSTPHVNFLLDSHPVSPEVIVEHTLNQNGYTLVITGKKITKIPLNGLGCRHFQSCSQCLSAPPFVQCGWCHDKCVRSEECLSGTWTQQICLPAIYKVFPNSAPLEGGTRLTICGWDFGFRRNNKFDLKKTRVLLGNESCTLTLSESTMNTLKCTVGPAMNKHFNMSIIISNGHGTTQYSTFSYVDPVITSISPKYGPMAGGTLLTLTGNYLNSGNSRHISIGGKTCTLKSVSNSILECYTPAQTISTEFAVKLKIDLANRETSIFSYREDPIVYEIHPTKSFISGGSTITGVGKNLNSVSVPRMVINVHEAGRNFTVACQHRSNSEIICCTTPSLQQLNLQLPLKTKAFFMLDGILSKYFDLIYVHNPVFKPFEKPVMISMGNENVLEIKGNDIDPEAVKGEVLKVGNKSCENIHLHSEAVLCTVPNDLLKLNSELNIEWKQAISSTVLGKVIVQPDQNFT
# Assay Comment: SPR (Biacore), c-Met-Fc captured by anti-IgG on CM5, single-cycle kinetics
Bridges are numbered along the chain shown (N, C = ends). Roman numbers before positions name the chains, in order. Where no end group is shown, it is not given here. [ ]: non-standard residue; d: D form. NMeR = CN[C@@H](CCCNC(=N)N)C(=O)O; NMeC = CN[C@@H](CS)C(=O)O
Listing: pKd of selected binders
Conceptually, pKd converts a concentration in mol/L into minus its log10.

Below: 2 binders and their reported pKd.
{"columns": ["Binder", "pKd"],
 "data": [
  ["D5-4 dimeric peptide, linker BMH (thioether I:N-I:15, II:N-II:15 via Ac; not fully specified (N-terminus, bridges); also: dimer: two copies joined by BMH through an added C-terminal Cys (handle not in letters), Two macrocyclic peptides joined through their C-terminal Cys by BMH; also called D5-4 BMH; not shown: C-terminal handle of each copy (spacer residue plus Cys)) peptide 1: [dY]WYYAWDQTYKAFPCG peptide 2: [dY]WYYAWDQTYKAFPCG", 7.92],
  ["{CH2CO}-YRQFNRRTHEVWNLDCG (thioether N-16; not fully specified, also called D4-3 peptide; D4-3 Monomer) [D4-3]", 8.47]
]}

Moving on to the next binder.
Summary for this binder, {CH2CO}-YRQFN[NMeR]RTHEVWNLD[NMeC]GC(Bis‑MAL‑PEG11) (thioether N-16; also: dimer via Bis-MAL-PEG11, also called D4-3NMe Bis-MAL-PEG11; dimerized N-methylated D4-3 peptide) [D4-3NMe dimeric peptide, linker Bis-MAL-PEG11] : pKd is 9.09
